- EXPERIMENT_SUMMARY: total protein half-life in vivo (active degradation + dilution); higher = more stable protein
- CONDITION_NOTES: E. coli NCM3722 delta-clpP; growth: N-lim chemostat; doubling time 6 h
ENDPOINT: total protein half-life in vivo (h)
Just the number in h, nothing appended.

Example cases with answers are listed next.
{"CHAIN": "MDMHSGTFNPQDFAWQGLTLTPAAAIHIRELVAKQPGMVGVRLGVKQTGCAGFGYVLDSVSEPDKDDLLFEHDGAKLFVPLQAMPFIDGTEVDFVREGLNQIFKFHNPKAQNECGCGESFGV", "total protein half-life in vivo (h)": 2.79}
{"CHAIN": "MAKSLFRALVALSFLAPLWLNAAPRVITLSPANTELAFAAGITPVGVSSYSDYPPQAQKIEQVSTWQGMNLERIVALKPDLVIAWRGGNAERQVDQLASLGIKVMWVDATSIEQIANALRQLAPWSPQPDKAEQAAQSLLDQYAQLKAQYADKPKKRVFLQFGINPPFTSGKESIQNQVLEVCGGENIFKDSRVPWPQVSREQVLARSPQAIVITGGPDQIPKIKQYWGEQLKIPVIPLTSDWFERASPRIILAAQQLCNALSQVD", "total protein half-life in vivo (h)": 5.19}

--- query ---
Query string: Input MVTSCTGHVLDNQRATTRGVFSSGSHLVTLHFQPHPFFSCVTDAVNGARSRFSAFYPKANYGLQGSQPSDVRAHNRAANGACDEYKQLKVLSMGRQKAVIKARREAKRVLRRDSRSHKQREEESVTSLVQMGGVEAIGMARDSRDTSPILARNEAQLHYLKAIESKQLIFATGEAGCGKTWISAAKAAEALIHKDVDRIIVTRPVLQADEDLGFLPGDIAEKFAPYFRPVYDVLVRRLGASFMQYCLRPEIGKVEIAPFAYMRGRTFENAVVILDEAQNVTAAQMKMFLTRLGENVTVIVNGDITQCDLPRGVCSGLSDALERFEEDEMVGIVRFGKEDCVRSALCQRTLHAYS [P0A9K1] , output reported total protein half-life in vivo.
Result string: 1.96
